All values here come from paper PMC6127852.

# Target under test: polyC-polyG
# Protocol description: UV–Vis titration with polyC-polyG (Scatchard)
# Assay type: binding
# Details: binding constant, Scatchard, PBS, pH 7
Let's look at some compounds and their measured log Ks, polyC-polyG.
Experimental endpoint: log Ks, polyC-polyG

>>> endpoint_result("c1ccc(-n2cc(COc3ccc(-c4nc5cc(C6=NCCN6)ccc5[nH]4)cc3)nn2)cc1")
6.21
>>> endpoint_result("COc1ccc(-n2cc(COc3ccc(-c4nc5cc(C(=N)N)ccc5[nH]4)cc3)nn2)cc1.Cl.Cl")
6.27
>>> endpoint_result("CC(C)NC(=N)c1ccc2[nH]c(-c3ccc(OCc4cn(Cc5ccccc5)nn4)cc3)nc2c1")
5.54
>>> endpoint_result("CC(C)NC(=N)c1ccc2[nH]c(-c3ccc(OCc4cn(-c5ccccc5)nn4)cc3)nc2c1")
6.17
>>> endpoint_result("CC(C)NC(=N)c1ccc2[nH]c(-c3ccc(OCc4cn(CSc5ccccc5)nn4)cc3)nc2c1.Cl.Cl")
7.20
>>> endpoint_result("Cl.Cl.Clc1ccccc1-n1cc(COc2ccc(-c3nc4cc(C5=NCCN5)ccc4[nH]3)cc2)nn1")
6.43
>>> endpoint_result("N=C(N)c1ccc2[nH]c(-c3ccc(OCc4cn(-c5ccccc5)nn4)cc3)nc2c1")
6.44
